- target-desc: SARS-CoV-2 Receptor Binding Domain (RBD) protein (SARS-CoV-2, UniProt P0DTC2 319-541)
- protocol-text: SPR, scFv captured by anti-V5, RBD analyte
The entries below are paired with their reported pKd.
The scale used: pKd is minus the common logarithm of the concentration in molar units.

Solved cases (3 shown):
{"binder": "COVID19_P06_G02 (scFv, V domains shown) VH: QVQLVQSGAEVKKPGASVKVSCKASGYTFTSHDINWVRQAPGQGLEWMGMINPSGGYTSYAQNFQGRVTMTRDTSTSTVYMELSSLRSEDTAVYYCTREGIPALLRTLDYWGQGTLVTVSS VL: DIQMTQSPSSLSASVGDRVTITCRASQGIRNDLGWYQQKPGKAPKLLIYAASSLQSGVPSRFSGSGSGTDFTLTISSLQPEDFATYYCQQTYTTPYTFGGGTKVEIKR", "pKd": 8.16}
{"binder": "COVID19_R02_A12 (scFv, V domains shown) VH: QVQLVQSGAEVKKPGASVKVSCKASGYTFTENEMHWVRQAPGQGLEWMGIINTSGGYTNYAQKFQGRVTMTRDTSTSTVYMELSSLRSEDTAVYYCTREGIPQLLRTLDYWGQGTLVTVSS VL: DIQMTQSPSSLSASVGDRVTITCRASQSISSWLAWYQQKPGKAPKLLIYAASSLQSGVPSRFSGSGSGTDFTLTISSLQPEDFATYYCQQSYSNPYTFGGGTKVEIKR", "pKd": 7.33}
{"binder": "COVID19_P06_G11 (scFv, V domains shown) VH: QVQLVQSGAEVKKPGASVKVSCKASGNTFTGYYMHWVRQAPGQGLEWMGAIYPGGSDTSYNQKFQGRVTMTRDTSTSTVYMELSSLRSEDTAVYYCTREGIPQLAWTLDYWGQGTLVTVSS VL: DIQMTQSPSSLSASVGDRVTITCRASQSMSSYLNWYQQKPGKAPKLLIYAASSLQSGVPSRFSGSGSGTEFTLTISSLQPEDIATYYCQQFGSFGGGTKVEIKR", "pKd": 7.67}

Req: Which measured pKd value corresponds to COVID19_R02_F08 (scFv, V domains shown) VH: QVQLVQSGAEVKKPGASVKVSCKASGYTFGNYAINWVRQAPGQGLEWMGAIYPGNSDTTYNQKFQGRVTMTRDTSTSTVYMELSSLRSEDTAVYYCARDTVMGGMDVWGQGTLVTVSS VL: DIQMTQSPSSLSASVGDRVTITCRASQEISGYLSWYQQKPGKAPKLLIYAASSLQSGVPSRFSGSGSGTDFTLTISSLQPEDFATYYCQQYVSYPWTFGGGTKVEIKR ?
Resp: 8.04

Req: Same again, this time with COVID19_R02_D07 (scFv, V domains shown) VH: QVQLVQSGAEVKKPGASVKVSCKASGYTFTENEMHWVRQAPGQGLEWMGIINPSGGSTSYAQKFQGRVTMTRDTSTSTVYMELSSLRSEDTAVYYCTREGPPQLLRTLDYWGQGTLVTVSS VL: DIQMTQSPSSLSASVGDRVTITCRASQSISSYLNWYQQKPGKAPKLLIYHTSNLETGVPSRFSGSGSGTDFTLTISSLQPEDFATYYCQQSYSFPATTFGGGTKVEIKR
Resp: 8.20

Req: Same again, this time with COVID19_P06_F03 (scFv, V domains shown) VH: QVQLVQSGAEVKKPGASVKVSCKASGYTFTSYSMHWVRQAPGQGLEWMGAIYPGNSDTTYAQKFQGRVTMTRDTSTSTVYMELSSLRSEDTAVYYCTLDGIPQLLRTLDYWGQGTLVTVSS VL: DIQMTQSPSSLSASVGDRVTITCRASQSISSYLNWYQQKPGKAPKLLIYGVSSLHSGVPSRFSGSGSGTDFTLTISSLQPEDFATYYCLQYVSYPWTFGGGTKVEIKR
Resp: 7.49

Req: Same again, this time with COVID19_P06_C09 (scFv, V domains shown) VH: QVQLVQSGAEVKKPGASVKVSCKASGYTFTSYEINWVRQAPGQGLEWMGVINPSGGHTNYAQKFQGRVTMTRDTSTSTVYMELSSLRSEDTAVYYCTREGIPQLAGTLDYWGQGTLVTVSS VL: DIQMTQSPSSLSASVGDRVTITCRASQSISGYLNWYQQKPGKAPKLLIYAASSLESGVPSRFSGSGSGTDFTLTISSLQPEDFATYYCQQGYTTPRTFGGGTKVEIKR
Resp: 8.61

Req: Same again, this time with COVID19_P06_G10 (scFv, V domains shown) VH: QVQLVQSGAEVKKPGASVKVSCKASGYDFINYYIHWVRQAPGQGLEWMGIIDPSGGSTSYAQKFQGRVTMTRDTSTSTVYMELSSLRSEDTAVYYCTREGIPQLLRTLDYWGQGTLVTVSS VL: DIQMTQSPSSLSASVGDRVTITCRASQDISDSLAWYQQKPGKAPKLLIYAASSLQSGVPSRFSGSGSGTDFTLTISSLQPEDFATYYCQQSYSRLAWTFGGGTKVEIKR
Resp: 8.69
